Assay: Aqueous solubility of the compound at pH 7.4
Format: physicochemical
OBSERVED PROPERTY: solubility

[[record]]
compound = "N[C@@]1(C(=O)O)C[C@@H](Sc2nc[nH]n2)[C@H]2[C@H](C(=O)O)[C@H]21"
meas_value = "> 100 µM"


---

Target: UniProt Q14833
Sequence (Q14833 whole entry): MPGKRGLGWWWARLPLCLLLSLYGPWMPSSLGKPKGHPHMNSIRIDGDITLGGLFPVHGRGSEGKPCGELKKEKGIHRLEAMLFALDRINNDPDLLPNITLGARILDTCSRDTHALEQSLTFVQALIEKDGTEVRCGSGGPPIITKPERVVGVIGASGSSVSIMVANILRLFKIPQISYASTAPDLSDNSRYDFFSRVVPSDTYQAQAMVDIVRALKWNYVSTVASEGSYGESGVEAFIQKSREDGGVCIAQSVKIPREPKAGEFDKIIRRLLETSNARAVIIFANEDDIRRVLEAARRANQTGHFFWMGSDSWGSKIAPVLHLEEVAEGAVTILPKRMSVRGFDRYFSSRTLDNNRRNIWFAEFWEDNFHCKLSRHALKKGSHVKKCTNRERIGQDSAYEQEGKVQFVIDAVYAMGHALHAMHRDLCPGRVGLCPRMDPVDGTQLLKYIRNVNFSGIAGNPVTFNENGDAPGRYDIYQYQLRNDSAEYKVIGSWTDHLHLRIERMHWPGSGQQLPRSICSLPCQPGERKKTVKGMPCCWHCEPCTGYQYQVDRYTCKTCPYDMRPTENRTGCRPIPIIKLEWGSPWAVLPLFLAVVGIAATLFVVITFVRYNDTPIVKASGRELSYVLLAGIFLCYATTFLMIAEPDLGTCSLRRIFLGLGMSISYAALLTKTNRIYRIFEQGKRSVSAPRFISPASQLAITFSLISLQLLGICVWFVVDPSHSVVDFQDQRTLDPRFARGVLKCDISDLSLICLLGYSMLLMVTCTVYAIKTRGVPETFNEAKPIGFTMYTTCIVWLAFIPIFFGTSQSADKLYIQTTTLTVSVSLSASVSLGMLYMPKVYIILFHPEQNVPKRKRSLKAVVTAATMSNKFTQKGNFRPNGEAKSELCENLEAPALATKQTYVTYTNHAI
Test: Antagonist activity at human recombinant mGlu4 receptor expressed in AV12 cells assessed as inhibition of glutamate-stimulated Ca2+ mobilization after 1 hr by FLIPR assay
OBSERVED PROPERTY: IC50

[[record]]
compound = "N[C@@]1(C(=O)O)C[C@@H](Sc2nc[nH]n2)[C@H]2[C@H](C(=O)O)[C@H]21"
meas_value = "> 12.5 µM"


---

Assay: Drug level in Sprague-Dawley rat cerebrospinal fluid at 10 mg/kg, ip after 0.5 hrs
Type: ADME, organism-based
Settings: read-out: Drug uptake
OBSERVED PROPERTY: concentration at 0.5 h (nM)

[[record]]
compound = "N[C@@]1(C(=O)O)C[C@@H](Sc2nc[nH]n2)[C@H]2[C@H](C(=O)O)[C@H]21"
meas_value = 235


---

Assay: Drug level in Sprague-Dawley rat cerebrospinal fluid at 10 mg/kg, ip after 4 hrs
Type: ADME, organism-based
Conditions: read-out: Drug uptake
OBSERVED PROPERTY: concentration at 4 h (nM)

[[record]]
compound = "N[C@@]1(C(=O)O)C[C@@H](Sc2nc[nH]n2)[C@H]2[C@H](C(=O)O)[C@H]21"
meas_value = 86.7


---

Test: Oral bioavailability in Sprague-Dawley rat at 5 mg/kg
Assay type: ADME, organism-based
Conditions: in vivo
OBSERVED PROPERTY: bioavailability (%)

[[record]]
compound = "N[C@@]1(C(=O)O)C[C@@H](Sc2nc[nH]n2)[C@H]2[C@H](C(=O)O)[C@H]21"
units_of_measure = "%"
meas_value = 4


---

Molecular target: Metabotropic glutamate receptor 8 (Homo sapiens, UniProt O00222)
Sequence (O00222 whole entry): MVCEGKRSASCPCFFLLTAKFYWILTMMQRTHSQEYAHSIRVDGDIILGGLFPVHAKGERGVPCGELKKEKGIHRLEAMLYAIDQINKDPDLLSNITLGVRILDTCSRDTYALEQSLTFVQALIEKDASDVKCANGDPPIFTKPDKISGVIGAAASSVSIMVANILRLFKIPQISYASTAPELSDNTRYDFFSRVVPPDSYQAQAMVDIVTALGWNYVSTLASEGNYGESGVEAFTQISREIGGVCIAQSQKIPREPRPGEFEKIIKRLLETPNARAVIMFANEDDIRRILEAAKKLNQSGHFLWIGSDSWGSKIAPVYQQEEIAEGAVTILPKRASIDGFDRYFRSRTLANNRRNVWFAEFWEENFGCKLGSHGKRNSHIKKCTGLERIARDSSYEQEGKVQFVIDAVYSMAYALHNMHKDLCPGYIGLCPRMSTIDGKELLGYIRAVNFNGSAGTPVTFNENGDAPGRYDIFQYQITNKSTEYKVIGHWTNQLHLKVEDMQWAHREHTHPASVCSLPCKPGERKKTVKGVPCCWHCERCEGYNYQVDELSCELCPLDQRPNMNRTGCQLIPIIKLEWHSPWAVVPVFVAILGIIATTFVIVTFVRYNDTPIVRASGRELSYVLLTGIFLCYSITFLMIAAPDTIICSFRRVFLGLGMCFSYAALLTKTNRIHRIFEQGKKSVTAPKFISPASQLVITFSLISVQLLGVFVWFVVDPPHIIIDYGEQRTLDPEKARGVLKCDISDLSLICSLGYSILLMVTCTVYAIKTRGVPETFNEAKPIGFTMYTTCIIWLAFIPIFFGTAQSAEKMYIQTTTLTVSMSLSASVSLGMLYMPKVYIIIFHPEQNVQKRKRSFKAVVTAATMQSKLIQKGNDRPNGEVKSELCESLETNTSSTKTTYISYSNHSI
Assay: Antagonist activity at human recombinant mGlu8 receptor expressed in AV12 cells assessed as inhibition of glutamate-stimulated Ca2+ mobilization after 1 hr by FLIPR assay
OBSERVED PROPERTY: IC50

[[record]]
compound = "N[C@@]1(C(=O)O)C[C@@H](Sc2nc[nH]n2)[C@H]2[C@H](C(=O)O)[C@H]21"
meas_value = "> 12.5 µM"


---

Test: Clearance in Sprague-Dawley rat at 1 mg/kg, iv
Type: ADME, organism-based
Conditions: in vivo
OBSERVED PROPERTY: clearance (mL/min/kg)

[[record]]
compound = "N[C@@]1(C(=O)O)C[C@@H](Sc2nc[nH]n2)[C@H]2[C@H](C(=O)O)[C@H]21"
meas_value = 12.3


---

Assay: AUC (0 to 24 hrs) in Sprague-Dawley rat at 1 mg/kg, ip
Type: ADME, organism-based
Parameters: dose 1 mg/kg, time < 24 hr, route intraperitoneal
Settings: in vivo
OBSERVED PROPERTY: AUC(0-t) at 24 h (µM·h)

[[record]]
compound = "N[C@@]1(C(=O)O)C[C@@H](Sc2nc[nH]n2)[C@H]2[C@H](C(=O)O)[C@H]21"
observed_property = "AUC(0-t) at 24 h"
meas_value = 6.01


---

Assay: Drug level in Sprague-Dawley rat cerebrospinal fluid at 3 mg/kg, ip after 1 hr
Format: ADME, organism-based
Conditions: read-out: Drug uptake
OBSERVED PROPERTY: concentration at 1 h (nM)

[[record]]
compound = "N[C@@]1(C(=O)O)C[C@@H](Sc2nc[nH]n2)[C@H]2[C@H](C(=O)O)[C@H]21"
meas_value = 86.4


---

Target: CYP3A4 (Homo sapiens, UniProt P08684)
Sequence (P08684 whole entry): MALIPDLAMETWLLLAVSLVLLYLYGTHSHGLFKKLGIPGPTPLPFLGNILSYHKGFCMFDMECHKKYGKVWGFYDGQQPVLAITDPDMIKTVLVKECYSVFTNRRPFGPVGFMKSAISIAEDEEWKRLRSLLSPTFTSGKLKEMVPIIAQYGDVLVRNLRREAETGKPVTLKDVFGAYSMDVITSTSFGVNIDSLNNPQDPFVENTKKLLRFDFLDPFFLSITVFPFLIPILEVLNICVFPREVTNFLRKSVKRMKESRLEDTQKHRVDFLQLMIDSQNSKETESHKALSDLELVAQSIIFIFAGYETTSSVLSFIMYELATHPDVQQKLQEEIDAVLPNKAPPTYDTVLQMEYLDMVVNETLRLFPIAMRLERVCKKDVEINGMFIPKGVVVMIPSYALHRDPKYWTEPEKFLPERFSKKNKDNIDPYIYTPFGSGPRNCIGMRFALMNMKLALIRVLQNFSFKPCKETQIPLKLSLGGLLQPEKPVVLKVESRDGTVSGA
Assay: Inhibition of human CYP3A4 at 10 uM
Assay type: ADME
OBSERVED PROPERTY: inhibition at 10 µM

[[record]]
compound = "N[C@@]1(C(=O)O)C[C@@H](Sc2nc[nH]n2)[C@H]2[C@H](C(=O)O)[C@H]21"
system_tested = "CYP3A4 (Homo sapiens, UniProt P08684)"
observed_property = "inhibition at 10 µM"
meas_value = "< 10%"


---

Molecular target: Metabotropic glutamate receptor 5 (Homo sapiens)
Assay: Agonist activity at human recombinant mGlu5 receptor expressed in AV12 cells assessed as stimulation of Ca2+ mobilization after 1 hr by FLIPR assay
OBSERVED PROPERTY: EC50

[[record]]
compound = "N[C@@]1(C(=O)O)C[C@@H](Sc2nc[nH]n2)[C@H]2[C@H](C(=O)O)[C@H]21"
system_tested = "Metabotropic glutamate receptor 5 (Homo sapiens)"
meas_value = "> 25 µM"


---

Test: Drug level in Sprague-Dawley rat cerebrospinal fluid at 3 mg/kg, ip after 4 hrs
Assay type: ADME, organism-based
Conditions: read-out: Drug uptake
OBSERVED PROPERTY: concentration at 4 h

[[record]]
compound = "N[C@@]1(C(=O)O)C[C@@H](Sc2nc[nH]n2)[C@H]2[C@H](C(=O)O)[C@H]21"
meas_value = "27.5 nM"


---

Molecular target: UniProt Q13255
Sequence (Q13255 whole entry): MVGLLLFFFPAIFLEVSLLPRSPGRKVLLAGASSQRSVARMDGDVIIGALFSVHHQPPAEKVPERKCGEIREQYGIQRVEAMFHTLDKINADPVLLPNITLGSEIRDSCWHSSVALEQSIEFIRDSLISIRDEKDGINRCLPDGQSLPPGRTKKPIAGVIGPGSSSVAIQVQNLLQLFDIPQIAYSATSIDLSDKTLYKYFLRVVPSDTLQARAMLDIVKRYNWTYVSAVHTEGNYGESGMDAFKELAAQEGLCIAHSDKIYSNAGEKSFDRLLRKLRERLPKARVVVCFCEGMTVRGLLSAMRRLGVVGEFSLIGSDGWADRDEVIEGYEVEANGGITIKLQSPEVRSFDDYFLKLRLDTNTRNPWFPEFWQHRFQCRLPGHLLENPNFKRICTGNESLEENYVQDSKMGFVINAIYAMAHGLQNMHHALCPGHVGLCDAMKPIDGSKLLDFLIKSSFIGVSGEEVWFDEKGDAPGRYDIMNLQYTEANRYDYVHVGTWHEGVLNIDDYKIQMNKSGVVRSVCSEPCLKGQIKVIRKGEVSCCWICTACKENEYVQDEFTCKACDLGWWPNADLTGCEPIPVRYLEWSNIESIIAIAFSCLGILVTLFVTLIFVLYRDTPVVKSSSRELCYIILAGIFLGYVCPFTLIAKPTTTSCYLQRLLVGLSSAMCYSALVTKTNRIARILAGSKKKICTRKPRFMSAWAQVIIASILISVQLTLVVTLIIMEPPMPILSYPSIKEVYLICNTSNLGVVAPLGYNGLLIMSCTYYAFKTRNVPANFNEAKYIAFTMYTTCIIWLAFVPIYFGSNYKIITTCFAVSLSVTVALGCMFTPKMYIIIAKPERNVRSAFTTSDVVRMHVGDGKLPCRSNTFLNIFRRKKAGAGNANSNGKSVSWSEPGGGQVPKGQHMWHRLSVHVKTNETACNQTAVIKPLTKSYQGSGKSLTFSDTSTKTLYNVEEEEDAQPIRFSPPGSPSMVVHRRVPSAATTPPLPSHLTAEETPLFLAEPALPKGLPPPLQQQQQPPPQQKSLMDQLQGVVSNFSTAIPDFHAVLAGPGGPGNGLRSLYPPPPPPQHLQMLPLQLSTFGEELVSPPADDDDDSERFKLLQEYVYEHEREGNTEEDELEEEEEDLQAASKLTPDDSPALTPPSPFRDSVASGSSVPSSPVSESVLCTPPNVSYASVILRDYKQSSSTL
Test: Agonist activity at human recombinant mGlu1 receptor expressed in AV12 cells assessed as stimulation of Ca2+ mobilization after 1 hr by FLIPR assay
OBSERVED PROPERTY: EC50

[[record]]
compound = "N[C@@]1(C(=O)O)C[C@@H](Sc2nc[nH]n2)[C@H]2[C@H](C(=O)O)[C@H]21"
meas_value = "> 25 µM"


---

Target: Metabotropic glutamate receptor 3 (Homo sapiens)
Experiment: Agonist activity at human recombinant mGlu3 receptor expressed in AV12 cells assessed as inhibition of forskolin-stimulated cAMP production after 1 hr by fluorescence assay
Type: functional, cell-based
pEC50: −log10 of the molar value.
OBSERVED PROPERTY: pEC50

[[record]]
compound = "N[C@@]1(C(=O)O)C[C@H](Sc2c[nH]nn2)[C@H]2[C@H](C(=O)O)[C@H]21"
observed_property = "pEC50"
readout_relation = "="
meas_value = 7.03

[[record]]
compound = "N[C@@]1(C(=O)O)C[C@@H](Sc2nnc(C(F)(F)F)[nH]2)[C@H]2[C@H](C(=O)O)[C@H]21"
observed_property = "pEC50"
readout_relation = "="
meas_value = 7.10

[[record]]
compound = "N[C@@]1(C(=O)O)C[C@@H](Sc2ccccc2)[C@H]2[C@H](C(=O)O)[C@H]21"
observed_property = "pEC50"
readout_relation = "<"
meas_value = 4.60

[[record]]
compound = "N[C@@]1(C(=O)O)C[C@@H](Sc2c[nH]nn2)[C@H]2[C@H](C(=O)O)[C@H]21"
observed_property = "pEC50"
readout_relation = "="
meas_value = 6.63

[[record]]
compound = "N[C@@]1(C(=O)O)C[C@H](Sc2nnc[nH]2)[C@H]2[C@H](C(=O)O)[C@H]21"
observed_property = "pEC50"
readout_relation = "="
meas_value = 6.64

[[record]]
compound = "N[C@@]1(C(=O)O)C[C@H](Sc2ccccc2)[C@H]2[C@H](C(=O)O)[C@H]21"
observed_property = "pEC50"
readout_relation = "<"
meas_value = 4.60

[[record]]
compound = "Nc1nnc(S[C@@H]2C[C@@](N)(C(=O)O)[C@@H]3[C@@H](C(=O)O)[C@@H]32)[nH]1"
observed_property = "pEC50"
readout_relation = "="
meas_value = 7.13

[[record]]
compound = "N[C@@]1(C(=O)O)C[C@@H](Sc2nc[nH]n2)[C@H]2[C@H](C(=O)O)[C@H]21"
observed_property = "pEC50"
readout_relation = "="
meas_value = 6.89


---

Molecular target: Metabotropic glutamate receptor 3 (Homo sapiens, UniProt Q14832)
Sequence (Q14832 whole entry): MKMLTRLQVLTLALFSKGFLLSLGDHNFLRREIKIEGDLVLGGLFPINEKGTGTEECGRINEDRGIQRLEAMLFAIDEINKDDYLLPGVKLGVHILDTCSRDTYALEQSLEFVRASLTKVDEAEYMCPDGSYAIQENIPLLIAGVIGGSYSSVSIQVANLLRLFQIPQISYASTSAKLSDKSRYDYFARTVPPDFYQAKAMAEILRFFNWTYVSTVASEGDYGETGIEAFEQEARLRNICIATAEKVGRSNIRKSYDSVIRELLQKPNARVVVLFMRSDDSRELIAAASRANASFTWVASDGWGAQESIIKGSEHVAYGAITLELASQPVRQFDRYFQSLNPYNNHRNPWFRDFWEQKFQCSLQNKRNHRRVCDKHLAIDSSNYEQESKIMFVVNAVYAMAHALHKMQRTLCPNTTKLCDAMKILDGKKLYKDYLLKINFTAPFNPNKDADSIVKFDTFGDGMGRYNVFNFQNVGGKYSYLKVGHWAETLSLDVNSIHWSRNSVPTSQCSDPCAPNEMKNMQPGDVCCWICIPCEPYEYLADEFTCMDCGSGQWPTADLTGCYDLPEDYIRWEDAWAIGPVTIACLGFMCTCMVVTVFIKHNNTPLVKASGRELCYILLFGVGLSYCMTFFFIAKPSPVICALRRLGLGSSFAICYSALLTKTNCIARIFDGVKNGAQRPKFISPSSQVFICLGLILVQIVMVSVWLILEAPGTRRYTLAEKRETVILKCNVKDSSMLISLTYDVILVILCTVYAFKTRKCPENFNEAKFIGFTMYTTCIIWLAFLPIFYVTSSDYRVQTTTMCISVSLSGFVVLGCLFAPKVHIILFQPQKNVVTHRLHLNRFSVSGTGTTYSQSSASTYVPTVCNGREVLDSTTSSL
Assay: Agonist activity at human recombinant mGlu3 receptor expressed in AV12 cells assessed as stimulation of Ca2+ mobilization after 1.5 hrs by FLIPR assay
Format: functional, cell-based
pEC50: −log10 of the molar value.
OBSERVED PROPERTY: pEC50

[[record]]
compound = "N[C@@]1(C(=O)O)C[C@@H](Sc2c[nH]nn2)[C@H]2[C@H](C(=O)O)[C@H]21"
observed_property = "pEC50"
meas_value = "< 4.60"

[[record]]
compound = "N[C@@]1(C(=O)O)C[C@H](Sc2nnc[nH]2)[C@H]2[C@H](C(=O)O)[C@H]21"
observed_property = "pEC50"
meas_value = "< 4.60"

[[record]]
compound = "CC(C)c1nc(S[C@H]2C[C@@](N)(C(=O)O)[C@@H]3[C@@H](C(=O)O)[C@@H]32)n[nH]1"
observed_property = "pEC50"
meas_value = "< 4.60"

[[record]]
compound = "CC(C)c1nnc(S[C@@H]2C[C@@](N)(C(=O)O)[C@@H]3[C@@H](C(=O)O)[C@@H]32)[nH]1"
observed_property = "pEC50"
meas_value = "< 4.60"


---

Experiment: Plasma concentration in Sprague-Dawley rat at 3 mg/kg, ip after 0.5 hrs
Format: ADME, organism-based
OBSERVED PROPERTY: concentration at 0.5 h (µM)

[[record]]
compound = "N[C@@]1(C(=O)O)C[C@@H](Sc2nc[nH]n2)[C@H]2[C@H](C(=O)O)[C@H]21"
observed_property = "concentration at 0.5 h"
meas_value = 10.1

